- System: 817829-284-R-J1-PDC complex spheroid viability;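 note: spheroids exposed to compounds for 7 days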
- test details: Anticancer human tumor 817829-284-R-J1-PDC patient-derived colon adenocarcinoma cell line growth inhibition [POLQ]
- condition label: curve of first compound; second compound 0.1 µM
pIC50: −log10 of the molar value.
Task for the reader: assign each of the following molecules its reported pIC50.

Sample answers from the record:
molecule	pIC50
CCc1c2c(nc3ccc(O)cc13)-c1cc3c(c(=O)n1C2)COC(=O)[C@]3(O)CC + COC1C(OC(N)=O)C(O)C(Oc2ccc3c(O)c(NC(=O)c4ccc(O)c(CC=C(C)C)c4)c(=O)oc3c2C)OC1(C)C	> 8.50
Nc1ccn(C2OC(CO)C(O)C2(F)F)c(=O)n1 (configuration not stated) + Cc1cccc(N(C)C(=O)C2C(O)CCN2c2nc(C)cc(C(F)(F)F)c2C#N)c1	> 7.50
CC(=O)O[C@H]1C(=O)[C@@]2(C)[C@H]([C@H](OC(=O)c3ccccc3)[C@]3(O)C[C@H](OC(=O)[C@H](O)[C@@H](NC(=O)c4ccccc4)c4ccccc4)C(C)=C1C3(C)C)[C@]1(OC(C)=O)CO[C@@H]1C[C@@H]2O + Cc1cccc(N(C)C(=O)C2C(O)CCN2c2nc(C)cc(C(F)(F)F)c2C#N)c1	> 8.02
COc1cccc2c1C(=O)c1c(O)c3c(c(O)c1C2=O)CC(O)(C(=O)CO)CC3OC1CC(N)C(O)C(C)O1 (configuration not stated) + Cc1cccc(N(C)C(=O)C2C(O)CCN2c2nc(C)cc(C(F)(F)F)c2C#N)c1	> 7.50

Quick one: give me pIC50 for each item below, same order please.
1. CCc1c2c(nc3ccc(O)cc13)-c1cc3c(c(=O)n1C2)COC(=O)[C@]3(O)CC + Cc1cccc(N(C)C(=O)C2C(O)CCN2c2nc(C)cc(C(F)(F)F)c2C#N)c1
2. COc1cccc2c1C(=O)c1c(O)c3c(c(O)c1C2=O)CC(O)(C(=O)CO)CC3OC1CC(N)C(O)C(C)O1 (configuration not stated) + Nc1ccc(C#CCN(C(=O)Cc2ncc(C(F)(F)F)cc2C(F)(F)F)c2ccc(F)cc2)nn1
3. CC1COCCN1c1cc(C2(O)CC3CCC(C2)O3)c2cnn(-c3ccn[nH]3)c2n1 (configuration not stated) + Cc1cccc(N(C)C(=O)C2C(O)CCN2c2nc(C)cc(C(F)(F)F)c2C#N)c1

Output:
["> 8.50", "> 7.50", "> 7.50"]

Origin of the recorded values: PubChem BioAssay AID1963839
